Multiple publications report log10 IC50 for UniProt:P00797; what follows is a combined list.
Sequence (P00797 whole entry): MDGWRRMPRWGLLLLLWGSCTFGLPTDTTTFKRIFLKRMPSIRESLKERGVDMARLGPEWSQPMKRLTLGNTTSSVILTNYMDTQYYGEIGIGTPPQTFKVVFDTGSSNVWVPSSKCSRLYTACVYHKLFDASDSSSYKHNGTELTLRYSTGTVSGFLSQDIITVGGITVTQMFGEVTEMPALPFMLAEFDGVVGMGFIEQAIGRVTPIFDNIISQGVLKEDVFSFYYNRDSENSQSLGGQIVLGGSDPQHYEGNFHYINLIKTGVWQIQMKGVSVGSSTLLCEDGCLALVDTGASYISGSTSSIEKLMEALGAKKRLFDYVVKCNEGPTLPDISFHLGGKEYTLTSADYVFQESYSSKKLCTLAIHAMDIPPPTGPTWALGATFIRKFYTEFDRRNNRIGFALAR
reported.metric: log10 IC50 (log10 of the value in nM)

INSERT INTO assay_data (molecule, system, observed) VALUES
  ('COc1ccc2cc(CN[C@@H]3CNCC[C@@H]3c3ccc(OCCCOCc4ccccc4OC)cc3)ccc2c1 (mixture of isomers)', 'UniProt:P00797', 1.86),
  ('CCc1nc(N)nc(N)c1-c1ccc2c(c1)N(CCCOC)C(c1ccccc1)CC2 (centres undefined)', 'UniProt:P00797', 1.76),
  ('COc1ccccc1COCCCOc1ccc([C@H]2CCNC[C@H]2NCc2ccc3[nH]ccc3c2)cc1 (mixture of isomers)', 'UniProt:P00797', 3.36),
  ('COc1ccccc1COCCCOc1ccc(N2CCNC[C@@H]2COc2ccc3ccccc3c2)cc1', 'UniProt:P00797', 2.26),
  ('CC[C@H](C)[C@H](NC(=O)[C@@H](C[C@H](O)[C@H](CC(C)C)NC(=O)[C@H](Cc1c[nH]cn1)N(C)C(=O)[C@H](Cc1ccccc1)NC(=O)[C@@H]1CCCN1C(=O)OC(C)(C)C)C(C)C)C(=O)NCc1ccccn1', 'UniProt:P00797', -0.19),
  ('COc1ccccc1COCCCOc1ccc(N2CCNC[C@@H]2COCc2ccc(-c3ccccc3)cc2)cc1', 'UniProt:P00797', 3.01),
  ('CCc1nc(N)nc(N)c1-c1ccc2c3ccccc3n(CCCOC)c2c1', 'UniProt:P00797', 2.24),
  ('COc1ccccc1COCCCOc1ccc(N2C(=O)CNC[C@@H]2COc2ccc3c(c2)N(CCNC(C)=O)CCC3)cc1', 'UniProt:P00797', -0.52),
  ('CCc1nc(N)nc(N)c1-c1ccc2c(c1)N(CCCOC)CCC2', 'UniProt:P00797', 2.84);
